system: ATP; test: switch fluorescence ratio, 500 uM ATP over buffer (Cy3 cluster intensity, sum of 5 cycles each) (fold (ratio)); higher = stronger signal-on switching upon ATP binding; sequences stand for … in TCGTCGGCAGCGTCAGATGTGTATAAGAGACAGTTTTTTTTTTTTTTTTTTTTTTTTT…TC; settings: aptamer strand: ATP DNA aptamer (quencher-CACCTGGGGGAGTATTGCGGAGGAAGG + anchor), 100 nM annealed; ATP concentration: 500 uM;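 note: ATP exposure 15 min at 22 °C before imaging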
Label Fulfilled when switch fluorescence ratio is at or above 1; anything below gets Not fulfilled.

query: Given the entry `ACGGTGGGGA` , answer whether its switch fluorescence ratio meets or surpasses 1.
result: Fulfilled

query: Entry `GCGAGGGGTT` : is its switch fluorescence ratio no less than 1?
result: Not fulfilled

query: // inclusive: switch fluorescence ratio at least 1? input: `GAGGTTAATA`
result: Fulfilled

# credit: the supplement of paper PMC10126150
